# TGI annotations
Test system: NCI-H226 lung
procedure.details: NCI tumour cell line growth inhibition, 48 h

compound	TGI
O=S1(=O)CS(=O)(=O)OCCCCCO1	> 100 µM
COc1cc(CNc2nc3c(NC(C)=O)cc(C(F)(F)F)cc3nc2-c2ccccc2)cc(OC)c1OC	> 100 µM
Cc1cn([C@H]2CN(O)C[C@@H](CO)O2)c(=O)[nH]c1=O	> 100 µM
CC(=O)N1CN2C(=O)CCC2c2cc(C)ccc21 (stereo unspecified)	> 100 µM
O=C(N[C@H]1CC2(C=C(I)C(=O)C(I)=C2)OC1=O)OCc1ccccc1	90.3 µM
COc1cc(-c2ccc[nH]2)[nH]c1/C=C1\N=C(C)C(C(=O)NC(C)C)=C1C	20.4 µM
C[N+](C)([O-])C12CC3CC(CC(C3)C1)C2	> 100 µM
C[C@]12CC[C@H]3[C@@H](CCC4=C/C(=N/OCCN5CCCCC5)CC[C@@]43C)[C@@H]1CC[C@@H]2O	48.4 µM
COc1cc(COC(=O)N(C)[C@@H](Cc2ccccc2)C(=O)O)c([N+](=O)[O-])cc1OC	> 100 µM
N=C(N)c1ccc(N=Nc2c(O)c(C(=O)Nc3ccccc3)cc3ccccc23)cc1	> 100 µM
Clc1ccc(/C=C/c2csnn2)cc1	> 100 µM
CC(C)(C)c1cc(C(C)(C)C)c2sc(=O)oc2c1O	36.2 µM
CCCCCCC1CCCCN1C(c1ccccc1)C(O)c1ccccc1 (stereo unspecified)	21.9 µM
COc1ccc(Nc2nc(N)c(C(=O)c3ccco3)s2)cc1	> 72.2 µM
Cc1cc(S(=O)(=O)NC2=NCc3c(F)cccc3N2)c(S)cc1Cl	> 100 µM
COc1cc([N+](=O)[O-])c(S(=O)(=O)O)cc1-[n+]1nc(C(=O)Nc2ccccc2)nn1-c1ccc([N+](=O)[O-])c(S(=O)(=O)[O-])c1	> 100 µM
CCCCCCCCCCCCCCCCOC[C@H](COC(c1ccccc1)(c1ccccc1)c1ccccc1)O[P+](=S)OC (stereo partly specified)	> 100 µM
O=c1[nH]c(NCCCCCO)nc2nc[nH]c12	> 100 µM
COc1ccc(/C=C2\N=C3N(Cc4ccccc4)C=C(N)N3C2=O)cc1	> 100 µM
CC(C)(C)OC(=O)CC(S(=O)(=O)c1ccccc1)S(=O)(=O)c1ccccc1	22.7 µM
C=C1CCC2C(C)(CO)C(O)CCC2(C)C1C/C=C1\C(=O)OCC1O (stereo unspecified)	> 100 µM

All values here come from PubChem BioAssay (NCI).
